- Assayed target: SIX1 homeodomain (reference allele) (human, UniProt Q15475 108-198)
- Sequence: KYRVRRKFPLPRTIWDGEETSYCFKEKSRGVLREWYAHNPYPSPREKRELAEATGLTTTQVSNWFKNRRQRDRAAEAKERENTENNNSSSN
- Measurement description: universal protein binding microarray; Universal all-10-mer PBM (8x60K, AMADID 030236), 300 nM GST-tagged protein, Alexa Fluor 488 anti-GST; buffer, salt, pH and temperature not stated (as in Berger); high values mean tight binding
- Protocol conditions: protein: ivt; tags: N-terminal GST; dsDNA, one strand shown
In all, about 33,000 sequences were measured (“e-score”: median about -0.053, highest 2% from about 0.38 on). This excerpt belongs to a sample that is enriched for the highest values.
Readings of binding signal for the listed sequences
Please provide the amount together with its unit, number first.

CCGCCTGA | 0.228 E-score
ACACGGCT | 0.2 E-score
ATACGTAT | 0.421 E-score
AGACGGAT | 0.402 E-score
CCCCGCCA | 0.161 E-score
GGATCCGA | 0.376 E-score

IN: I'd like to know its binding signal. The sequence in question is ACCATGAT
OUT: 0.269 E-score

IN: For AAACGGAT then?
OUT: 0.364 E-score

IN: For CGATCCGA then?
OUT: 0.396 E-score
